# measuredOn: 6His-NS5 RdRp(270-900) of DENV-2 NGC strain (DENV-2 NGC strain)
# procedureSummary: ELISA
# conditionDetails: both partners purified
propertyName: IC50

Give its IC50 value. Item: EGEWKEGEEVQVLAL [NS3(86-100) peptide of DENV-2]
> 200 µM

From: paper PMC12615485
